System: OVCAR-5 ovarian
Test: NCI tumour cell line growth inhibition, 48 h
experimental-endpoint: TGI

COc1cccc(-c2nn(-c3ccccc3)cc2-c2ccnc(NCCNC(=O)Nc3cccc(C(F)(F)F)c3)c2)c1 : 3.63 µM
C(=Nc1ccc(-c2nc3ccccc3[nH]2)cc1)c1ccc[nH]1 : > 100 µM
CCCCCCCC(CC(=O)NC(CO)C(=O)NC(CO)CC(C)C)OC(=O)CC(CCCCCCC)OC(=O)CC(CCCCCCC)OC1OC(C)C(O)C(OC2OC(C)C(O)C(O)C2OC(C)=O)C1O (centres undefined) : 21.9 µM
O=C(CCCCCCCCC(=O)N1C(=O)CC(=O)N(c2ccccc2)C1=S)N1C(=O)CC(=O)N(c2ccccc2)C1=S : > 100 µM
CC(=O)OC1=CC2=CC[C@H]3[C@@H]4CCC(=O)[C@@]4(C)CC(=O)[C@]3(S)[C@@]2(C)CC1 : > 100 µM
CN(COC(=O)c1ccccc1)c1nc(N(C)COC(=O)c2ccccc2)nc(N(C)COC(=O)c2ccccc2)n1 : > 100 µM
COc1cccc2c1-c1c(c3ccc([N+](=O)[O-])cc3c(=O)n1CCCN)C2=O : 3.4 µM
CN=C(NC(=S)N(C)C)N(C)C : > 100 µM

--- query ---
Q) Identify the reported TGI for the following entry. "Cc1cc(Nc2nc(-c3cccnc3)nc3ccccc23)n[nH]1"
A) > 100 µM

====

Test system: M14 melanoma
Test: NCI tumour cell line growth inhibition, 48 h
experimental-endpoint: TGI

In the examples that follow, each entry is paired with its recorded TGI.
COc1cccc2c1-c1c(c3ccc([N+](=O)[O-])cc3c(=O)n1CCCN)C2=O : 3 µM
O=[N+]([O-])c1ccc(C(Nc2ccccc2)P(c2ccccc2)c2ccccc2)cc1 (stereo not given) : > 100 µM
Nc1c(O)cc(N=C2C(=O)C=CC=C2C(=O)O)c(O)c1C(=O)O : > 59.2 µM
COc1ccc(/C=C2\CCS(=O)(=O)c3ccccc3C2=O)cc1OC : > 100 µM
CCOC(=O)c1cc(I)c(-c2cc(C)no2)n1C : > 100 µM
CC(=O)OCC1OC(OCCCCCCO)C(OC(C)=O)C(OC(C)=O)C1OC(C)=O (stereo not given) : > 100 µM

Here are 2 compounds. What values of TGI were reported for them?
1. COc1cccc(-c2nn(-c3ccccc3)cc2-c2ccnc(NCCNC(=O)Nc3cccc(C(F)(F)F)c3)c2)c1
2. O=C(NC1CCCCC1)c1cc2ccccc2cc1O

A)
["10.6 µM", "53.3 µM"]

Here are 2 compounds. What values of TGI were reported for them?
1. Cc1nnc2c3nnc(C)n3c3ccccc3n12
2. Cc1ccc(NC(=O)C2C(=O)N(c3ccc(C)c(C)c3)C(=O)/C2=N\NC(N)=O)cc1C (stereo not given)

A)
> 100 µM
> 100 µM

====

System: MOLT-4 leukemia
Experiment: NCI tumour cell line growth inhibition, 48 h
For each record, write down the corresponding TGI.

Past entries and their recorded results:
CS(=O)(=O)NNS(=O)(=O)c1ccccc1 : > 100 µM
ON(Cc1ccccc1)C(=S)c1ccccc1 : > 41 µM
O=C1Nc2ccccc2Cn2c1cc1oc(-c3ccccc3)cc12 : > 100 µM
CSc1c(C#N)c(N)nc2c(N=Nc3ccc(Br)cc3)c(N)nn12 : 27.3 µM
Cc1cn(CCCCCCC2=NCCCN2)c(=O)[nH]c1=O : > 100 µM
COc1cccc(/C=N/NC(=S)NC2CC3CCC2C3)c1O (stereo unspecified) : 48.3 µM

Hi! Can you tell me TGI for each of these compounds?
1. N#Cc1c(Br)n(C2OC(CO)C(O)C2O)c2ncnc(N)c12 (stereo unspecified)
2. O=C(CSc1ncn[nH]1)C[P+](c1ccccc1)(c1ccccc1)c1ccccc1
3. CN(C)c1ccc(C=C2C(=O)N(c3ccccc3)N(c3ccccc3)C2=O)cc1
4. O=c1[nH]c(=O)n(C2CC(O)C(CO)O2)cc1NN=NCCCc1ccccc1 (stereo unspecified)

A)
1: 7.02 µM; 2: > 100 µM; 3: > 100 µM; 4: > 100 µM

Q) Identify the reported TGI for the following entry. "COc1ccccc1C1=C(Nc2ccccc2)C(=O)NC1=O"
A) > 25 µM

// data source = PubChem BioAssay (NCI)
